The origin of these recorded values is patent EP4682143A1.

- Tested on: Cholangiocarcinoma PDX Model LD1-0060-200791
- experimental.protocol: Cholangiocarcinoma PDX model in vitro antiproliferation assay (CTG)
- Type: cell-based
- assay.setup: 144 h; cultured 6 days, CTG; read-out: Absolute IC50
measurement.type: IC50 (µM)

1) CNCc1ccc(-c2cc3cc(F)cc(C(N)=O)c3o2)cc1	5.77
2) c1cc(-c2nc(N3CCOCC3)c3oc4ccc(CN5CC6CC5CO6)cc4c3n2)c2cc[nH]c2c1 (stereo not drawn)	3.48
3) CCOc1cc2ncc(C#N)c(Nc3ccc(OCc4ccccn4)c(Cl)c3)c2cc1NC(=O)/C=C/CN(C)C.O=C(O)/C=C\C(=O)O [Compound A009, maleate, reference compound]	3.31

---

IC50 for assorted compounds
- Tested on: Ba/F3-EGFR-G719S cell line
- experimental.protocol: CellTiter-Glo (CTG) cell proliferation assay (Example A)
- Assay type: cell-based
- assay.setup: 72 hours, highest test concentration 1 µM
measurement.type: IC50 (nM)

1. CCOc1cc2ncc(C#N)c(Nc3ccc(OCc4ccccn4)c(Cl)c3)c2cc1NC(=O)/C=C/CN1CC(N(C)C)C1	16.8
2. C=C(CN1CC(N(C)C)C1)C(=O)Nc1cc2c(Nc3ccc(OCc4ccccn4)c(Cl)c3)c(C#N)cnc2cc1OCC	69.6
3. CCOc1cc2ncc(C#N)c(Nc3ccc(OCc4ccccn4)c(Cl)c3)c2cc1NC(=O)/C=C/CN1CC(F)(F)C1	2.06
4. C=C(CN1CCC(N(C)C)CC1)C(=O)Nc1cc2c(Nc3ccc(OCc4ccccn4)c(Cl)c3)c(C#N)cnc2cc1OCC	152
